- Tested on: Escherichia coli TOP10;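 note: peptides expressed intracellularly from a pBAD plasmid library in pooled LB shake-flask culture, induced with 0.3% L-arabinose, DNA abundance read by NGS, three biological replicates, DESeq2 with apeglm shrinkage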
- protocol summary: shrunken log2 fold change of peptide-encoding DNA abundance (4.5 h post-induction vs induction); higher = less antimicrobial activity (less host growth inhibition)
- condition summary: time post-induction: 4.5 h; library: site-saturation at positions 5, 18, 19, 20
# shrunken log2 fold change binned as small value (below -0.2), mid value (-0.2 to below 0.1), large value (0.1 or more)

Q. Consider RRIRGRPPRLPRPRPRPMRMPRP . To which shrunken log2 fold change class does it belong?
A. large value

Q. Consider RRIRQRPPRLPRPRPRPYHNPRP . To which shrunken log2 fold change class does it belong?
A. small value

Q. Consider RRIRWRPPRLPRPRPRPVIRPRP . To which shrunken log2 fold change class does it belong?
A. mid value

Q. Consider RRIRARPPRLPRPRPRPPTDPRP . To which shrunken log2 fold change class does it belong?
A. large value

Q. Consider RRIRRRPPRLPRPRPRPMHLPRP . To which shrunken log2 fold change class does it belong?
A. large value

Q. Consider RRIRQRPPRLPRPRPRPQIVPRP . To which shrunken log2 fold change class does it belong?
A. mid value

Q. Consider RRIRYRPPRLPRPRPRPTTYPRP . To which shrunken log2 fold change class does it belong?
A. small value

Q. Consider RRIRVRPPRLPRPRPRPTSMPRP . To which shrunken log2 fold change class does it belong?
A. mid value

Q. Consider RRIRARPPRLPRPRPRPRGRPRP . To which shrunken log2 fold change class does it belong?
A. large value

Q. Consider RRIRVRPPRLPRPRPRPCNVPRP . To which shrunken log2 fold change class does it belong?
A. small value

Q. Consider RRIRPRPPRLPRPRPRPCRTPRP . To which shrunken log2 fold change class does it belong?
A. mid value

Q. Consider RRIRDRPPRLPRPRPRPNMYPRP . To which shrunken log2 fold change class does it belong?
A. small value

Q. Consider RRIRSRPPRLPRPRPRPCETPRP . To which shrunken log2 fold change class does it belong?
A. large value

Q. Consider RRIRWRPPRLPRPRPRPQTGPRP . To which shrunken log2 fold change class does it belong?
A. mid value

Q. Consider RRIRYRPPRLPRPRPRPNRMPRP . To which shrunken log2 fold change class does it belong?
A. small value

Q. Consider RRIRYRPPRLPRPRPRPDCVPRP . To which shrunken log2 fold change class does it belong?
A. small value

Q. Consider RRIRPRPPRLPRPRPRPNTSPRP . To which shrunken log2 fold change class does it belong?
A. small value

Q. Consider RRIRQRPPRLPRPRPRPHYWPRP . To which shrunken log2 fold change class does it belong?
A. mid value

Q. Consider RRIRKRPPRLPRPRPRPHKNPRP . To which shrunken log2 fold change class does it belong?
A. large value

Q. Consider RRIRPRPPRLPRPRPRPPRPPRP . To which shrunken log2 fold change class does it belong?
A. large value

Q. Consider RRIRMRPPRLPRPRPRPDLMPRP . To which shrunken log2 fold change class does it belong?
A. mid value

Q. Consider RRIRPRPPRLPRPRPRPKYYPRP . To which shrunken log2 fold change class does it belong?
A. small value

Q. Consider RRIRSRPPRLPRPRPRPCCAPRP . To which shrunken log2 fold change class does it belong?
A. large value

Q. Consider RRIRARPPRLPRPRPRPMLAPRP . To which shrunken log2 fold change class does it belong?
A. large value

Q. Consider RRIRYRPPRLPRPRPRPLTTPRP . To which shrunken log2 fold change class does it belong?
A. small value

Q. Consider RRIRVRPPRLPRPRPRPRYLPRP . To which shrunken log2 fold change class does it belong?
A. mid value

Q. Consider RRIRSRPPRLPRPRPRPNVWPRP . To which shrunken log2 fold change class does it belong?
A. large value

Q. Consider RRIRIRPPRLPRPRPRPRQIPRP . To which shrunken log2 fold change class does it belong?
A. small value

Q. Consider RRIRRRPPRLPRPRPRPNRRPRP . To which shrunken log2 fold change class does it belong?
A. large value

Q. Consider RRIRARPPRLPRPRPRPSFLPRP . To which shrunken log2 fold change class does it belong?
A. small value

Q. Consider RRIRTRPPRLPRPRPRPPRRPRP . To which shrunken log2 fold change class does it belong?
A. large value
